Assay: Toxicity liver stage against HepG2, at 10uM
Type: cell-based
Design: test concentration 10 uM, cell line HepG2-A16-CD81EGFP
Settings: human, HepG2-A16-CD81EGFP cells; read-out: INHIBITION
Measured parameter: cytotoxicity at 10 µM (%)
Field format: number, assumed %, no unit text.

Problem: Reported cytotoxicity at 10 µM for N#CC1(NC(=O)Cc2cc(Cl)c3c(c2)OCCO3)CCC1 : what is it?
Solution: -8.05

Problem: Reported cytotoxicity at 10 µM for Nc1ncnc2nc(C3CCCCN3)ccc12 (centres undefined) : what is it?
Solution: 5.74

Problem: Reported cytotoxicity at 10 µM for CC(C)CNC(=O)C1CC(=O)N(c2n[nH]c3ccccc23)C1 (centres undefined) : what is it?
Solution: -11.6

Problem: Reported cytotoxicity at 10 µM for CNS(=O)(=O)c1cccc(CNc2ncccn2)c1 : what is it?
Solution: -9.7

---

Assay: Toxicity liver stage against HepG2, at 10uM
Assay type: cell-based
Set-up: test concentration 10 uM, cell line HepG2-A16-CD81EGFP
Conditions: human, HepG2-A16-CD81EGFP cells; read-out: INHIBITION
Measured parameter: cytotoxicity at 10 µM (%)
Field format: number, assumed %, no unit text.

Problem: Reported cytotoxicity at 10 µM for Cn1nnc2c1CCN(Cc1ccccn1)C2COCc1ccccc1 (stereo not given) : what is it?
Solution: -117

Problem: Reported cytotoxicity at 10 µM for Cc1ccc(NC(=O)C2CSCN2C(=O)c2ccncc2)c(C)c1 (stereo not given) : what is it?
Solution: -10.4

Problem: Reported cytotoxicity at 10 µM for O=C(c1ccc2c(c1)[nH]c(=O)n2C1CCCC1)N1CCC1 : what is it?
Solution: -46.4

Problem: Reported cytotoxicity at 10 µM for CN(Cc1n[nH]c2c1CCC2)c1nc(C2CCCC2)nc2c1CNC2 : what is it?
Solution: -3.86

Problem: Reported cytotoxicity at 10 µM for CC(C)NC(=O)CC1COC2(CCN(Cc3ccsc3)CC2)C1 (stereo not given) : what is it?
Solution: -1.6

Problem: Reported cytotoxicity at 10 µM for COc1ccc(C2OC(COc3ccccc3Br)=NN2C(C)=O)cc1 (stereo not given) : what is it?
Solution: 3.56

Problem: Reported cytotoxicity at 10 µM for O=C(NCC1CCOC1)c1csc(Cc2ccccc2)n1 (stereo not given) : what is it?
Solution: -118

Problem: Reported cytotoxicity at 10 µM for CC(C)c1n[nH]c(C2CN(C(=O)c3cc(C4CC4)on3)CCO2)n1 (stereo not given) : what is it?
Solution: -1.7

Problem: Reported cytotoxicity at 10 µM for Cn1ccnc1C(=O)NC[C@H]1OC[C@@H]2CCN(S(C)(=O)=O)C[C@@H]21 : what is it?
Solution: -101

Problem: Reported cytotoxicity at 10 µM for Cc1nnc([C@H]2C[C@H]3OCC[C@H]3N(S(=O)(=O)CC(C)C)C2)o1 : what is it?
Solution: -5.27

Problem: Reported cytotoxicity at 10 µM for Cc1cc(NC(=O)CN2CCN(c3nc(C)cs3)C(C)C2)on1 (stereo not given) : what is it?
Solution: -1.81

Problem: Reported cytotoxicity at 10 µM for CCS(=O)(=O)N1CCc2onc(CNc3ncccn3)c2C1 : what is it?
Solution: -0.748

Problem: Reported cytotoxicity at 10 µM for CSCC(C)(O)CNc1ncccc1I (stereo not given) : what is it?
Solution: -2.36

Problem: Reported cytotoxicity at 10 µM for O=S(=O)(c1ccc(-c2cnco2)cc1)N1CCCC(O)(CO)CC1 (stereo not given) : what is it?
Solution: 1.72

Problem: Reported cytotoxicity at 10 µM for Cc1cc(CN2C[C@@H]3COC[C@@H](C(=O)N4CCCCO4)[C@@H]3C2)no1 : what is it?
Solution: -80.6

Problem: Reported cytotoxicity at 10 µM for CCn1cnnc1CNC(=O)N1CCN(c2ccccc2Cl)CC1 : what is it?
Solution: -0.502

Problem: Reported cytotoxicity at 10 µM for c1ccc(CN2CCc3ncnc(C4CC4)c3CC2)cc1 : what is it?
Solution: -156

Problem: Reported cytotoxicity at 10 µM for O=C(NC1CC1)N1CCc2ccc(=O)n(CC3CC3)c2CC1 : what is it?
Solution: -4.63

Problem: Reported cytotoxicity at 10 µM for Cc1cccc(CN2C(=O)CO[C@@H]3CN(C4CCOCC4)C[C@H]32)c1 : what is it?
Solution: -146

Problem: Reported cytotoxicity at 10 µM for Cc1noc(C)c1NS(=O)(=O)c1cc(C(=O)O)cc(Cl)c1Cl : what is it?
Solution: 6.14

Problem: Reported cytotoxicity at 10 µM for Nc1nnc(C2CC(=O)N(c3ccccc3)C2)s1 (stereo not given) : what is it?
Solution: 4.23

Problem: Reported cytotoxicity at 10 µM for O=C(c1ccnnc1)N1C[C@@H](OCc2cccnc2)[C@H]2OCCC[C@H]21 : what is it?
Solution: 5.03

Problem: Reported cytotoxicity at 10 µM for COc1ccc(-c2ccc(C(=O)NS(C)(=O)=O)c(F)c2)c(F)c1 : what is it?
Solution: 0.512

Problem: Reported cytotoxicity at 10 µM for Cc1cc(NC(=O)CNCc2csc(-c3cnccn3)n2)ccc1Cl : what is it?
Solution: -3.52

Problem: Reported cytotoxicity at 10 µM for CCN(Cc1ccoc1)c1ncc(S(N)(=O)=O)s1 : what is it?
Solution: 5.73

Problem: Reported cytotoxicity at 10 µM for CC(=O)N1CCCC1c1cc(N2CCN(CC3CC3)CC2)cc(C)n1 (stereo not given) : what is it?
Solution: -2.14

Problem: Reported cytotoxicity at 10 µM for Cc1nc(C)c(C(=O)N2CCCC2(C)C(=O)NC2CCCC2)o1 (stereo not given) : what is it?
Solution: 0.61

Problem: Reported cytotoxicity at 10 µM for c1cncc(OCC2CN(Cc3ccco3)Cc3nccn3C2)c1 (stereo not given) : what is it?
Solution: -20.4

Problem: Reported cytotoxicity at 10 µM for Cc1nnc(CN2CCN(CC(O)c3cccc(F)c3)CC2)n1C (stereo not given) : what is it?
Solution: -1.92

Problem: Reported cytotoxicity at 10 µM for CNC(=O)NC(C)c1nc(-c2ccc(Br)cc2)no1 (stereo not given) : what is it?
Solution: 7.71

Problem: Reported cytotoxicity at 10 µM for O=C(c1ccc(-n2ccnc2)nn1)N1CCCCC1Cn1cccn1 (stereo not given) : what is it?
Solution: -4.49

Problem: Reported cytotoxicity at 10 µM for CC(C(=O)N(C)Cc1nnc2n1CCC2)S(C)(=O)=O (stereo not given) : what is it?
Solution: -6.56

Problem: Reported cytotoxicity at 10 µM for CN(C)c1ccc(CNCc2ccc(N3CCOCC3)cc2)cn1 : what is it?
Solution: 7.17

Problem: Reported cytotoxicity at 10 µM for O=C(C1CCCO1)N1CCC2(CC1)COCCN(Cc1ccncc1)C2 (stereo not given) : what is it?
Solution: -81.1

Problem: Reported cytotoxicity at 10 µM for CCN1CCN(C(=O)c2csnn2)c2ccccc21 : what is it?
Solution: -1.46

Problem: Reported cytotoxicity at 10 µM for O=C(NC1CC1)c1cc2c(nc1O)CC(c1cccs1)CC2=O (stereo not given) : what is it?
Solution: 86.1

Problem: Reported cytotoxicity at 10 µM for Cc1cc2c(=O)n3c(nc2s1)CCN(Cc1cnn(C)c1C)CC3 : what is it?
Solution: 3.06

Problem: Reported cytotoxicity at 10 µM for CCc1noc(CN(CC(=O)N2CCCCC2)c2ccc(C)cc2)n1 : what is it?
Solution: -3.24

Problem: Reported cytotoxicity at 10 µM for CC1CCc2nn(CCNC(=O)c3ccco3)c(=O)cc2C1 (stereo not given) : what is it?
Solution: 9.15

Problem: Reported cytotoxicity at 10 µM for CSc1ccccc1CN1C[C@H]2CC[C@@H](C1)N(CC1CC1)C2=O : what is it?
Solution: -4.81
